Target: T1, PACE4 (UniProt P29122 150-969)
T1 chain: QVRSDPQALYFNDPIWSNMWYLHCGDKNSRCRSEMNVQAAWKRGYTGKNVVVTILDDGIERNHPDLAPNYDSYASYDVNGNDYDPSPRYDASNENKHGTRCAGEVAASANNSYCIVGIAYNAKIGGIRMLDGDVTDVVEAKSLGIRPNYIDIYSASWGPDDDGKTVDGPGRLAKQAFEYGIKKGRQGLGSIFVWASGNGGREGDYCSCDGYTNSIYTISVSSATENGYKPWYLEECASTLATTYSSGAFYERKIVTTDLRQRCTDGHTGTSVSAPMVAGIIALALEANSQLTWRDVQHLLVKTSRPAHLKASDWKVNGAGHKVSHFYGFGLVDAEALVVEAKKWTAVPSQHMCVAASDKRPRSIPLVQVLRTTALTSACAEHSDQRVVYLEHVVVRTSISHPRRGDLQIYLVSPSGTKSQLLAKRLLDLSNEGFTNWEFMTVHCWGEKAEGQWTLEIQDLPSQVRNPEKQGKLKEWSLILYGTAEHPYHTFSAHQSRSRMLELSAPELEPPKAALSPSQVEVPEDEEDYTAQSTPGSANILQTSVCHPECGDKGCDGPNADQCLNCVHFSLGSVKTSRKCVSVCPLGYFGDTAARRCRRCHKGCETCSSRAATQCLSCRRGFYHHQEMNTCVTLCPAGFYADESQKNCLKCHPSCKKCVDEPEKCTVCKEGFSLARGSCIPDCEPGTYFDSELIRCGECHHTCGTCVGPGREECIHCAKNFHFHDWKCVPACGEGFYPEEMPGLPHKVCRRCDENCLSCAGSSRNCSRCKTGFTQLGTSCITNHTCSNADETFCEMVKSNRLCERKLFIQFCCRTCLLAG
Assay: enzyme inhibition
No end group written: not given here.
measurementName: Ki (µM)
Give bare numbers, in µM.

Qu. What Ki value was documented for this binder, RVKR-NH2 [RVKR-NH2] ?
Ans. 4.34
